These entries and their values trace back to the supplement of paper PMC8671470.

- System: K-562
- procedure-summary: cell viability (% survival relative to DMSO control, bortezomib = 0%); higher = less cytotoxic
- reported-conditions: 10 nM; 72 h

compound	cell viability / %
CN1CCN(CCCN2c3ccccc3Sc3ccc(C(F)(F)F)cc32)CC1	89.5
CC/C=C\C[C@H]1C(=O)CC[C@@H]1CC(=O)OC [Methyl jasmonate]	95.9
CCCCCOC(=O)Nc1nc(=O)n([C@@H]2O[C@H](C)[C@@H](O)[C@H]2O)cc1F	92.5
C=CCN(C)CCCCCCOc1ccc(C(=O)c2ccc(Br)cc2)c(F)c1.O=C(O)/C=C/C(=O)O [Ro 48-8071 fumarate]	104
COC(=O)c1cc2c(C(F)(F)F)cc(-c3ccccc3)cc2n1O	91.1
CC(C)CC(=O)N[C@H](C(=O)N[C@H](C(=O)N[C@@H](CC(C)C)[C@@H](O)CC(=O)N[C@@H](C)C(=O)N[C@@H](CC(C)C)[C@@H](O)CC(=O)O)C(C)C)C(C)C	85.5
CC(C)(C)c1ccc(S(=O)(=O)NCc2ccc(C(=O)Nc3cccnc3)cc2)cc1	103
C=CC(=O)c1ccc(O)cc1	85.5
OC[C@H]1NC[C@H](O)[C@@H](O)[C@@H]1O	94.7
CCN(CC)C(=S)SSC(=S)N(CC)CC	99.1
C[C@H]1c2cccc(O)c2C(=O)C2C(=O)[C@]3(O)C(=O)C(C(N)=O)C(=O)[C@@H](N(C)C)[C@@H]3[C@@H](O)[C@@H]21 (some centres not stated)	97
c1cc(-c2cnn3cc(-c4ccc(OCCN5CCCCC5)cc4)cnc23)ccn1	97.4
CC(=O)Nc1nc(C)c(-c2ccc(Cl)c(S(=O)(=O)NCCO)c2)s1	98.9
Cc1nc(-c2ccccc2)sc1C(=O)Nc1ccc(S(N)(=O)=O)cc1	109
Cc1c(Cl)cccc1S(=O)(=O)Nc1nc(CC(=O)N2CCN(C)CC2)cs1	83.5
O=C([O-])CC(O)(C(=O)[O-])C(O)C(=O)[O-].[K+].[K+].[K+] (configuration not stated) [Hydroxycitrate]	98.8
CCCCCN(C)CCC(O)(P(=O)(O)O)P(=O)(O)O [Ibandronate]	92
